- method-notes: melting temperature; fluorescence melt of hairpins on a sequencing array, two-state fit, raised by 9.35 °C to match UV melts
- measurement-context: sodium 0.088 M

# polymer-sequence, units, Tm
records = [
    ("GCATCCGAAAGGAAATGC ((((((....)))..)))", "°C", 46.1),
    ("GCAACTGCGAAAGCATGC (((..(((....))))))", "°C", 40.2),
    ("CATTTGAAAAAATG (((((....)))))", "°C", 32.1),
    ("GATCTGAGACCAGATC ((((((....))))))", "°C", 44.5),
    ("GTTAGCCGAAAGGCAAAC (((.(((....))).)))", "°C", 48.6),
    ("GATCGTATTACGATC ((((((...))))))", "°C", 57),
    ("GCGGCAGGAAACTGCCAC (.(((((....))))).)", "°C", 54.6),
    ("GCCTGTCGAAAGACGGC (((.(((....))))))", "°C", 56.5),
    ("GCGATATTCGC ((((...))))", "°C", 51.9),
    ("GCTTCACGAAAGTGCAGC (((.(((....))).)))", "°C", 51.6),
    ("GTTCTGGAAACAGAAC ((((((....))))))", "°C", 53.4),
    ("GGTTTCGGAAACGAAATC (.(((((....))))).)", "°C", 48),
    ("GTTCCCGAAAGGGTAAC ((((((....))).)))", "°C", 40.9),
    ("GATCTTAGCGAAGATC ((((((....))))))", "°C", 43.4),
    ("TGTGGGAAACCACA (((((....)))))", "°C", 49.6),
    ("GCTCATGGAAACACGAGC ((((.((....)).))))", "°C", 42.6),
    ("GCATGCGAAAGCACTGC ((((((....))).)))", "°C", 51.3),
    ("GCAATCGGAAACGATCAC (..((((....))))..)", "°C", 25.1),
    ("GCGTAGGCGAAAGCCCGC (((..(((....))))))", "°C", 61.9),
    ("GACTGAGGAAACCCAGTC (((((.(....).)))))", "°C", 44.8),
    ("GCGAGAGGAAACCCTCGC (((((.(....).)))))", "°C", 54.1),
    ("GATCAAGTCATTGATC ((((((....))))))", "°C", 52.3),
    ("GATCCCCGCAGGGATC ((((((....))))))", "°C", 62.8),
    ("GATCCTAATTAGGATC ((((((....))))))", "°C", 52),
    ("GCAGCCGGAAACGGCTAC (.(((((....))))).)", "°C", 45.9),
    ("GCAACGCGAAAGCTATGC (((..((....))..)))", "°C", 36.8),
]
